- Test system: Citrobacter freundii GN 346 (Cephalosporinase-producing bacterium)
- ASSAY SUMMARY: MIC by plate method
- Type: cell-based
- Parameters: unit not given here
- APPLIED CONDITIONS: Heart Infusion agar pH 7.4, inoculum 10^4 cells per plate (10^6 cells/ml)
READOUT KIND: minimum inhibitory concentration (MIC)

CCN1CCN(C(=O)N[C@@H](C(=O)N[C@]2(OC)C(=O)N3C(C(=O)O)=C(CSc4nnnn4C)CS[C@@H]32)c2ccccc2)C(=O)C1=O :: 100

a. CCN1CCN(C(=O)N[C@@H](C(=O)N[C@]2(OC)C(=O)N3C(C(=O)O)=C(CSc4nnnn4C)CS[C@@H]32)c2ccc(O)cc2)C(=O)C1=O
b. CCN1CCN(C(=O)N[C@@H](C(=O)N[C@]2(OC)C(=O)N3C(C(=O)O)=C(COC(C)=O)CS[C@@H]32)c2ccc(O)cc2)C(=O)C1=O
Which has the smaller recorded minimum inhibitory concentration (MIC), a or b ? Identify your pick by its label. b
